Let's go through some Ki measurements on UniProt P17936 together.
Sequence (P17936 whole entry): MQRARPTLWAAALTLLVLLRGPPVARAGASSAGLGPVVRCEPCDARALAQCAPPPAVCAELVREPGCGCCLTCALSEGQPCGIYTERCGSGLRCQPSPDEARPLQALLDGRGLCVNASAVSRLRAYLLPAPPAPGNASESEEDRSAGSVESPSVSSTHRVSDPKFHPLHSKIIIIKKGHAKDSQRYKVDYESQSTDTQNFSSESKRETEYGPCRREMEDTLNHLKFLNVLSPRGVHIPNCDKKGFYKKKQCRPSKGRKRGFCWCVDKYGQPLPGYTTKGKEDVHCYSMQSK
attribute-measured: Ki (nM)

>  <entry-smiles>
O=C(c1ccc(O)c(O)c1)c1nc(O)cc2cc(O)c(O)cc12

>  <target>
UniProt P17936

>  <attribute-measured>
Ki

>  <limit-qualifier>
=

>  <measured-value>
28

$$$$
>  <entry-smiles>
COc1ccc(C(=O)c2[nH]c(=O)cc3cc(OC)c(OC)cc23)cc1OC

>  <target>
UniProt P17936

>  <attribute-measured>
Ki

>  <limit-qualifier>
>

>  <measured-value>
10000

$$$$

###

target: Insulin-like growth factor-binding protein 6 (Homo sapiens, UniProt P24592); assay: The compound was tested for binding affinity against Insulin-like growth factor binding protein 6
Sequence (P24592 whole entry): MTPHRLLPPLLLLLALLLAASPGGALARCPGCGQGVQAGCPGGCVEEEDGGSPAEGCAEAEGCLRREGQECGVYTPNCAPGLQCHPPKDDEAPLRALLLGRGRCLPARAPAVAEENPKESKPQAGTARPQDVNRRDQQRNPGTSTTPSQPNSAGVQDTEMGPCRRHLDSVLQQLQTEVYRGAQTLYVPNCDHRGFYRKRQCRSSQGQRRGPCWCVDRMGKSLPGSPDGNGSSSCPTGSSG
pKi: −log10 of the molar value.

>  <entry-smiles>
O=C(c1ccc(O)c(O)c1)c1nc(O)cc2cc(O)c(O)cc12

>  <pKi>
7.07

$$$$

###

target: Insulin-like growth factor-binding protein 2 (Homo sapiens, UniProt P18065)
Sequence (P18065 whole entry): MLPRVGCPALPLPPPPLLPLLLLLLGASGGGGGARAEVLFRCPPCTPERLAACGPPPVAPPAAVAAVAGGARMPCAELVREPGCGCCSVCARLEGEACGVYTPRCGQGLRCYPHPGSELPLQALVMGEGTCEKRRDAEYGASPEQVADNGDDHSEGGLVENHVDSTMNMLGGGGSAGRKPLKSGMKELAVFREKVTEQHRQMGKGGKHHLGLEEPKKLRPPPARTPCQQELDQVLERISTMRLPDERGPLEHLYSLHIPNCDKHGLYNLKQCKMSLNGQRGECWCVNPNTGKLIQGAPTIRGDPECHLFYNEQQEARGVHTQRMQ

>  <entry-smiles>
O=C(O)c1cc2cc(O)c(O)cc2c(C(=O)c2ccc(O)c(O)c2)n1

>  <Ki (nM)>
2.07

$$$$

###

target: Insulin-like growth factor-binding protein 4 (Homo sapiens); test: The compound was tested for binding affinity against Insulin-like growth factor binding protein 4
Sequence (P22692 whole entry): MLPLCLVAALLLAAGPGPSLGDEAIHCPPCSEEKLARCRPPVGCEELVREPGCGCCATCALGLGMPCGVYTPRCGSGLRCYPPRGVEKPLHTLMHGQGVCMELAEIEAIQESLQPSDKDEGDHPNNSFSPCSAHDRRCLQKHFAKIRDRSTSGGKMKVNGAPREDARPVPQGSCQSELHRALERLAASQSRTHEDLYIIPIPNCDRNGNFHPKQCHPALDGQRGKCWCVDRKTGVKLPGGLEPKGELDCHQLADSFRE
pKi: −log10 of the molar value.

>  <entry-smiles>
O=C(O)c1cc2cc(O)c(O)cc2c(C(=O)c2ccc(O)c(O)c2)n1

>  <pKi>
8.98

$$$$
